System: OVCAR-5 ovarian
PROCEDURE_TEXT: NCI tumour cell line growth inhibition, 48 h
OBSERVATION_TYPE: TGI

compound=N=c1oc2c(Br)cc(Br)cc2cc1C(=O)Nc1ccccn1 result="> 100 µM"
compound="CCN(CC)CCCC(C)Nc1cc(-c2ccc(C(F)(F)F)cc2)c(C#N)c2nc3ccccc3n12 (stereo not given)" result="5.15 µM"
compound="COC(=O)C(Cc1ccccc1)NC(=O)C(CCC(=O)OCc1ccccc1)NC(=O)OC(C)(C)C (stereo not given)" result="> 100 µM"
compound="O=C1OC2C(O)COC2(O)C1(O)C(C[N+](=O)[O-])c1ccc(Cl)cc1 (stereo not given)" result="32.6 µM"

// lookup TGI | system=OVCAR-5 ovarian | key= O=c1[nH]c(=O)n(C2OC(CO)C(O)C2O)c2ncc(-c3ccc(-c4ccccc4)cc3)nc12 (stereo not given)
> 20 µM

Please do the same for CCOC(=O)N1CC2(C)C=CC1C(C(=O)OC)C2 (stereo not given) as well.
> 100 µM

Please do the same for COc1cc2c(c(OC)c1O)-c1ccc(OC)c(=O)cc1[C@@H](NC(=O)C(F)(F)F)CC2 as well.
> 100 µM

Please do the same for COC(=O)C(=O)C(C(=O)C1=NS(=O)(=O)c2cc(S(N)(=O)=O)c(Cl)cc2N1)c1nc2ccc(C(=O)c3ccccc3)cc2[nH]c1=O (stereo not given) as well.
> 100 µM

Please do the same for CC1CN(c2ccc(Cl)cc2)CC(C)(C)OC(=O)O1 (stereo not given) as well.
> 100 µM

Please do the same for NCCCCCCCCn1c2c(c3ccccc3c1=O)C(=O)c1ccccc1-2 as well.
7.89 µM
